Just for reference, PubChem BioAssay is where these values come from.

- System: XIP peptide (Xip251-270) binding
- method: small-molecule binders of XIP peptide, primary screen, biochemical, small-molecule microarray, fluorescence 635/667 nm, 0.1 µg/mL protein (AID 1182)
- reportedConditions: fluorescent protein binding, 635 nm, higher = more signal, called active from +8 up or from −8 down
Kindly state composite z-score for each of the entries shown.
One number for each entry.

Worked examples follow.
>  <molecule>
COc1ccc(CCNC(=O)[C@@]2(Sc3ccc(C)cc3)CC(=O)N(Cc3ccccc3)[C@@H]2c2ccc(CO)cc2I)cc1

>  <recordedNumber>
-0.281

$$$$
>  <molecule>
CC(C)[C@@H](C(=O)O)n1cc(-c2ccccn2)nn1

>  <recordedNumber>
0.353

$$$$
>  <molecule>
C=CCC(OC(C)=O)[C@@H]1[C@@H](N(Cc2cccc3ccccc23)C(=O)Cc2ccc(OC)cc2)c2cc(OCCCO)ccc2N1C(=O)Cc1ccc(OC)cc1 (stereo not given in full)

>  <recordedNumber>
-0.203

$$$$

Okay, here is my list. What is composite z-score for each of these?
1. COCCOC(=O)N1C(=O)[C@@]2(c3cc(C#CCNC(N)=O)ccc31)[C@H](c1ccccc1OCCO)N1[C@H](c3ccccc3)[C@H](c3ccccc3)OC(=O)[C@H]1[C@@H]2C(=O)Nc1nc2ccccc2s1
2. C=CCNC(=O)[C@H]1[C@@H]2C(=O)O[C@@H](c3ccccc3)[C@@H](c3ccccc3)N2[C@@H](c2ccc(OCCO)cc2)[C@]12C(=O)Nc1ccc(C#CCCO)cc12

output:
[-0.377, 0.331]

====

- method: CREB reporter modulators without forskolin, primary screen, cell-based, PC12, CRE-LacZ reporter, unstimulated (AID 1145)
- reportedConditions: no forskolin, luminescence, 4.5 h, higher = more signal, called active from +8 up or from −8 down
Kindly state z-score for each of the entries shown.
Numbers only.

>  <smilesData>
CC(C)CNC(=O)[C@@H]1c2ccccc2C(=O)N(Cc2ccc(OC(F)(F)F)cc2)[C@H]1c1ccc(CO)cc1

>  <z-score>
-0.646

$$$$
>  <smilesData>
COc1ccc(CCNC(=O)[C@@]2(Sc3ccc(C)cc3)CC(=O)N(Cc3ccccc3)[C@@H]2c2ccc(CO)cc2I)cc1

>  <z-score>
1.13

$$$$
>  <smilesData>
C=C(C(=O)CC[C@H](OC(C)=O)c1ccc(CO)o1)C(C)C

>  <z-score>
1.09

$$$$

input: For the compound shown here, O=C1c2ccccc2[C@](Cc2ccccc2I)(C(=O)O)[C@H](c2ccc(CO)cc2)N1Cc1ccccc1Cl , give the reported z-score.
output: -0.0888

====

- targetUnderTest: Luciferin 4-monooxygenase (Photinus pyralis) (UniProt P08659)
- Sequence (P08659 whole entry, looked up): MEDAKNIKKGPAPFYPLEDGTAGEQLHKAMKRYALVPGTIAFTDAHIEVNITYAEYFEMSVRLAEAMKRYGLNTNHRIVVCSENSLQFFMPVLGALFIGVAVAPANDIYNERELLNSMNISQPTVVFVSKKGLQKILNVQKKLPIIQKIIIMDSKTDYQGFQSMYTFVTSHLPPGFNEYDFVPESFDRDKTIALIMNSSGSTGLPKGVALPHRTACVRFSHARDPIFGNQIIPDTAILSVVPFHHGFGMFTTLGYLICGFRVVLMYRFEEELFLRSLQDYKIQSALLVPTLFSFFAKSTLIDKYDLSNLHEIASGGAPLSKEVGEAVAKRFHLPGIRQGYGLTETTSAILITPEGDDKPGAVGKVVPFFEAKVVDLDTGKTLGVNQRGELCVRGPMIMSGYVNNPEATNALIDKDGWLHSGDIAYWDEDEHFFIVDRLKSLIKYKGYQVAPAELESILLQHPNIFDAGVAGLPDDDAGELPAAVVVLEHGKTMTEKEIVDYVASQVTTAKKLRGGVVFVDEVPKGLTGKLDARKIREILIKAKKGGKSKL
- method: firefly luciferase enzyme inhibitors, primary screen, biochemical, luminescence, purified enzyme, 2006 set (AID 1141);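 further: cell-free assay with purified firefly luciferase at 100 ng per well in PBS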
- reportedConditions: SteadyGlo luminescence, 30 min, higher = more signal, called active from +8 up or from −8 down
Kindly state z-score for each of the entries shown.
Answers are plain numbers.

Worked examples follow.
>  <compound>
C=C(CCCC)/C(=C/C[C@H](OC(=O)c1ccncc1)c1ccc(CO)o1)c1cnc2ccccc2c1

>  <z-score>
-2.94

$$$$
>  <compound>
C=CCC(OC(C)=O)[C@@H]1[C@@H](N(Cc2ccc(-c3cccc(C(F)(F)F)c3)o2)C(=O)c2ccc(-c3ccccc3)cc2)c2cc(OCCCO)ccc2N1C(=O)Cc1ccc(OC)cc1 (stereo partly specified)

>  <z-score>
-0.626

$$$$
>  <compound>
COc1ccc([Si](C)(C)[C@H]2[C@H](CCO)O[C@@]3(C(=O)N(Cc4ccc(N5C(=O)c6cccc7cccc5c67)cc4)c4ccccc43)[C@@H]2C)cc1

>  <z-score>
-0.558

$$$$
>  <compound>
CC(C)(C)OC(=O)CC[C@@]12N=C(c3ccc(OCCCO)cc3)O[C@@H]1c1ccccc1N(Cc1ccccc1)C2=O

>  <z-score>
-2.14

$$$$
>  <compound>
CCCCCN1CC=CC23O[C@@H]4/C=C\CCC(C)OC(=O)C4[C@H]2C(=O)N(CCCO)[C@@H]3C1=O (stereo partly specified)

>  <z-score>
-0.637

$$$$
>  <compound>
CCOC(=O)C[C@H]1[C@H](OC(=O)c2ccc(-c3ccccc3)cc2)[C@@H](NC(=O)c2ccccc2)c2cc(OCCCO)ccc2N1C(=O)c1ccccc1

>  <z-score>
-0.517

$$$$
>  <compound>
COc1ccc([Si](C)(C)[C@H]2[C@H](CC(=O)N(CCO)Cc3ccccc3)O[C@@]3(C(=O)N(Cc4ccc(N5CCC5=O)cc4)c4ccccc43)[C@@H]2C)cc1

>  <z-score>
-1.23

$$$$
>  <compound>
C[N+](C)(C)CCCC[C@@H]1NC(=O)[C@H]2C[C@@H](C(=O)NCCCCCN)[C@@H](c3cccc(OCCO)c3)N2C1=O

>  <z-score>
-0.714

$$$$

Okay, here is my list. What is z-score for each of these?
1. CC(C)C[C@@H]1NC(=O)[C@@]23C(=O)N[C@@H](Cc4ccccc4)C2[C@H](C)[C@@]2(C)O[C@H]2C3/C=C/CC/C=C/CNC(=O)[C@@H](C)NC1=O (stereo partly specified)
2. C=CCN1C(=O)[C@@]2(O[C@@H](CCO)[C@H]([Si](C)(C)c3ccc(OC)cc3)[C@H]2C)c2cc(N(C=O)c3ccccc3)ccc21
3. C[N+](C)(C)CCCCNC(=O)[C@@H]1C[C@@H]2C(=O)NCC(=O)N2[C@@H]1c1cccc(OCCO)c1

output:
[-0.8, -1.66, -1.9]
